Test: Inhibition of porcine serum BAO using [7-14C]-benzylamine as substrate preincubated for 30 mins followed by substrate addition
Set-up: species or system Sus scrofa
Value Type: pIC50
Please treat pIC50 as minus the base-10 logarithm of the molar concentration.

q: Report pIC50, nothing else, for this compound: Cl.NCc1c(OCCO)cccc1OCCO
a: 5.59

q: Report pIC50, nothing else, for this compound: CCCCc1cccc(CCCC)c1CN.Cl
a: 4.85

q: Report pIC50, nothing else, for this compound: Cl.NCc1c(OCCCCO)cccc1OCCCCO
a: 7.18

----------
Experiment: Inhibition of porcine serum BAO using [7-14C]-benzylamine as substrate preincubated for 30 mins followed by substrate addition
Parameters: species or system Sus scrofa
Value Type: IC50

q: Report IC50, nothing else, for this compound: NCc1ccccc1CO
a: > 1000 µM

q: Report IC50, nothing else, for this compound: CCOCc1cccc(COCC)c1CN
a: > 1000 µM

q: Report IC50, nothing else, for this compound: NCc1c(O)cccc1O
a: > 1000 µM
